Test system: HS 578T breast
Test: NCI-60 one-dose screen, 48 h (100 = growth as untreated, 0 = no growth, -100 = all killed)
Settings: 10 µM unless noted
Method: Growth inhibition of the HS 578T human tumor cell line is measured as a screen for anti-cancer activity. Cells are grown in 96 well plates and exposed to the test compound for 48 hours. Compounds are tested at a single concentration, which is 10^-5 M for most compounds. The reported endpoint is percent growth (GI% or GIPRCNT), where numbers from 0 - 100% represent growth inhibition, and numbers from -100% - 0 represent cell death. For example, a value of 40 represents 60% growth inhibition. […]
Compounds without any hit were thinned out: in the full panel of roughly 83,000, 20% have a hit.
Classify: YES when growth is strictly less than 40%; NO when growth is not.

{"molecule": "C=CC(=O)N1CCN(c2ccc3nc4c(nc3c2C(F)(F)F)C(=O)c2ncccc2C4=O)CC1", "qualitative label": "NO"}
{"molecule": "N#Cc1ccc(C(=O)CSc2nc3c(c(Nc4ccc(S(N)(=O)=O)cc4)n2)CCC3)cc1", "qualitative label": "YES"}
{"molecule": "COc1cccc(NC(=O)c2ccc(NC(=O)CCl)s2)c1", "qualitative label": "NO"}
{"molecule": "Oc1ccc(F)c(Nc2nc(SCCN3CCOCC3)nc3c2cnn3CC(Cl)c2ccc(Br)cc2)c1 (stereo unspecified)", "qualitative label": "YES"}
{"molecule": "COC(=O)CSC1=C(C)C(=O)C(OC)=C(OC)C1=O", "qualitative label": "NO"}
{"molecule": "Cc1ccc(NC(=O)N/N=C/c2c[nH]c3ccccc23)c(C)c1", "qualitative label": "YES"}
{"molecule": "CCOC(=O)/C(F)=C/C1CC1C1CCN(C(=O)OC(C)(C)C)CC1 (stereo unspecified)", "qualitative label": "NO"}
{"molecule": "Nc1cc(-c2c[nH]c3ccc(Br)cc23)nc2cc(-c3c[nH]c4ccccc34)nn12", "qualitative label": "YES"}
{"molecule": "O=C1CC(c2ccc(I)cc2)OC2C=Cc3ccccc3C12 (stereo unspecified)", "qualitative label": "NO"}
{"molecule": "Cc1ccc(Cl)cc1NC(=O)Nc1nc2ccc([N+](=O)[O-])cc2s1", "qualitative label": "YES"}
{"molecule": "COc1ccc(N=Nc2c(N)nn3c(N)c(C#N)c(-c4ccccc4)nc23)cc1", "qualitative label": "YES"}
{"molecule": "COC(=O)c1c(C(=O)OC)c2c3ccccc3c3ccccc3n2c1C(=O)C(F)(F)F", "qualitative label": "NO"}
{"molecule": "CNc1nc2ccccc2n2c(-c3ccc(O)c(O)c3)cnc12", "qualitative label": "YES"}
{"molecule": "O=C(NC(=S)N1CCN(c2ncnc3c2cnn3-c2ccccc2)CC1)c1ccc(F)cc1", "qualitative label": "NO"}
{"molecule": "COc1ccc2[nH]cc(-c3cc4nc(-c5cn(C)c6ncc(Br)cc56)cc(N)n4n3)c2c1", "qualitative label": "YES"}
{"molecule": "O=CNc1ccc(-n2cnc3cc(-c4ccc(O)cc4)ccc32)cc1", "qualitative label": "NO"}
{"molecule": "O=C1/C(=C/C=C/c2ccco2)SC(=S)N1CC(=S)C1C=CS(=O)(=O)C1 (stereo unspecified)", "qualitative label": "NO"}
{"molecule": "COC(=O)c1cccc(Oc2ccc(NC(=O)Nc3cc(C(F)(F)F)ccc3F)cc2)c1", "qualitative label": "YES"}
{"molecule": "Cc1[nH]nc2ccc3nc(-c4cnn(CCO)c4)c4c(c3c12)CCCC4", "qualitative label": "YES"}

* * *

system: HOP-92 NSCLC; test: NCI-60 one-dose screen, 48 h (100 = growth as untreated, 0 = no growth, -100 = all killed); conditions: 10 µM unless noted
About 83,000 compounds went through this panel and 20% of them were active in at least one assay; those are over-represented in the sample as a whole.
Mark True for reported growth of 50% or greater; mark False for anything smaller.

{"compound": "O=C(NNC(=O)c1ccc(OCc2nc3ccc(Cl)cc3[nH]2)cc1)Nc1ccc(Cl)c(C(F)(F)F)c1", "qualitative label": "False"}
{"compound": "C=CC[n+]1cccc2c3ccccc3ccc21", "qualitative label": "True"}
{"compound": "CC(C)(C)OC(=O)N1CCC2(CC1)Oc1ccccc1[C@H]1CC(c3ccc(Br)cc3)=NN12", "qualitative label": "True"}
{"compound": "Cn1cc(-c2cc(N)n3nc(-c4c[nH]c5ccc(Cl)cc45)cc3n2)c2cccnc21", "qualitative label": "False"}
{"compound": "COc1ccc2[nH]c(O)c(N=Nc3nc(-c4ccc(Br)cc4)cs3)c2c1", "qualitative label": "False"}
{"compound": "C[C@H](NC(=O)c1ccc2c(-c3ccc(C(F)(F)F)cc3)cccc2c1)c1ccccn1", "qualitative label": "False"}
{"compound": "COc1ccc(NC(=O)Nc2nc3ccc([N+](=O)[O-])cc3s2)cc1", "qualitative label": "False"}
{"compound": "CCc1ccc(SC2c3cc(OC)ccc3Oc3nc(N)c(C#N)c(N)c32)cc1 (stereo not given)", "qualitative label": "False"}
{"compound": "O=C(CSc1nc2sc3c(c2c(=O)n1-c1ccc(Cl)cc1)CCCC3)NNC(=O)c1ccc(Br)cc1", "qualitative label": "True"}
{"compound": "Cc1cnc2ccc(Oc3ccccc3-c3ccccc3)nn12", "qualitative label": "True"}

* * *

test system: HS 578T breast; assay: NCI-60 one-dose screen, 48 h (100 = growth as untreated, 0 = no growth, -100 = all killed); conditions: 10 µM unless noted
The panel holds about 83,000 compounds, 20% with a hit somewhere; the sample as a whole holds those more often.
growth for assorted compounds

{"compound": "COc1nc(N)ncc1-c1ccc2ncnc(N3CCc4cc(F)c(Cl)cc43)c2c1", "reading unit": "%", "growth": 7.35}
{"compound": "S=C(NCCc1ccccc1)Nc1ccc(OCc2nc3ccc(Cl)cc3[nH]2)cc1", "reading unit": "%", "growth": 38.4}
{"compound": "O=C(Nc1ccc(F)cc1)Nc1nc2ccc([N+](=O)[O-])cc2s1", "reading unit": "%", "growth": -8.39}
{"compound": "COc1cc(/C=N/NC(=O)c2ccc(OCc3nc4ccc(Cl)cc4[nH]3)cc2)cc(OC)c1OC", "reading unit": "%", "growth": 58.3}
{"compound": "COc1cc(C2CC(c3ccc(C(F)(F)F)cc3)=Nc3c(N)nc(N)nc3N2)ccc1Oc1nc(Nc2ccc(F)cc2)nc(N(C)C)n1 (stereo not drawn)", "reading unit": "%", "growth": 48.9}
{"compound": "CC[C@@]12CC(C(=O)OC)=C3Nc4cc5c(cc4[C@@]34CCN(C[C@H]3O[C@H]31)[C@@H]24)[C@@H]1[C@H](O5)[C@@H](O)[C@@]2(CC)CC(C(=O)OC)=C3Nc4cc(O)ccc4[C@@]34CCN1[C@@H]24", "reading unit": "%", "growth": 6.27}
{"compound": "O=C(Nc1nc2ccc([N+](=O)[O-])cc2s1)Nc1ccc(Cl)cc1Cl", "reading unit": "%", "growth": 46.4}
{"compound": "COc1ccc2[nH]c(=O)cc(-n3ncc(C(=O)/C=C/c4cc(OC)c(OC)c(OC)c4)c3C)c2c1", "reading unit": "%", "growth": 57.3}
{"compound": "OC(c1ccccc1)(c1ccccc1)C1CCN(c2ccc3nnc(Cl)n3n2)CC1", "reading unit": "%", "growth": 71.1}
{"compound": "O=C(c1ccc(O)cc1)C1[C@H](c2ccc(Cl)cc2)[C@@H](c2ccccc2)NC12C(=O)Nc1ccccc12 (stereo partly drawn)", "reading unit": "%", "growth": -11.8}
{"compound": "COc1ccc(NC(=O)Cn2c(/C=C/c3cccc(OC)c3)nc3ccccc3c2=O)cc1", "reading unit": "%", "growth": 9.48}
{"compound": "CCOc1ccc(-c2cc(-c3cc(C(C)C)c(O)cc3C)nn2-c2ccc(S(N)(=O)=O)cc2)cc1", "reading unit": "%", "growth": 35.9}
{"compound": "Nc1ccc(-c2ccc3ncnc(N4CCc5cc(F)c(Cl)cc54)c3c2)cn1", "reading unit": "%", "growth": -15.8}
{"compound": "CNS(=O)(=O)N1CCc2c(Br)c3c(c(OC)c2C1CCc1ccccc1)OCO3 (stereo not drawn)", "reading unit": "%", "growth": -22.4}
{"compound": "CN(C)C(=O)c1cc(-c2ccc3ncnc(N4CCc5cc(F)c(Cl)cc54)c3c2)cnc1N", "reading unit": "%", "growth": -44.2}
{"compound": "Clc1ccc2c(NCCNC34CC5CC(CC(C5)C3)C4)ccnc2c1", "reading unit": "%", "growth": -45.4}
{"compound": "COC(=O)c1c(C(=O)OC)c2c3ccccc3c3ccccc3n2c1C(=O)C(C)(C)C", "reading unit": "%", "growth": 69.4}
{"compound": "O=c1c(-c2nc(-c3ccccc3)c(-c3ccccc3)[nH]2)coc2ccc(F)cc12", "reading unit": "%", "growth": 71.6}

Source: PubChem BioAssay (NCI)
